Biological target: CD73 on U138 human neuroglioma cells (Homo sapiens)
Construct: U138 cells were obtained from ATCC and cultured in DMEM with 10% FBS; host or cells: U138 human neuroglioma cells
Sequence (P21589 27-549): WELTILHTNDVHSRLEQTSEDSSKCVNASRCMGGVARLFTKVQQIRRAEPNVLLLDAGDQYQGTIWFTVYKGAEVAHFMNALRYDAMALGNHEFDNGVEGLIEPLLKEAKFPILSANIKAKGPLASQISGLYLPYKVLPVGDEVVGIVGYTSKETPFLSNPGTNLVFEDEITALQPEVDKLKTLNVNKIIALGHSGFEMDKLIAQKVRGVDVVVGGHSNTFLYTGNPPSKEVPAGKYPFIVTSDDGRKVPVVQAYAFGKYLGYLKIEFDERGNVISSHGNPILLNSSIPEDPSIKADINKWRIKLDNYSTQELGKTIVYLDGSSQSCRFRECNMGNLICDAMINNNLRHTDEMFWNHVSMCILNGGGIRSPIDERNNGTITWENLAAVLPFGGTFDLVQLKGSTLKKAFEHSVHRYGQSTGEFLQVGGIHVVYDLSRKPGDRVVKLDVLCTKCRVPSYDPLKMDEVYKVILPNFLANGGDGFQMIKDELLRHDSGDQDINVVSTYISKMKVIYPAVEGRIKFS
Experiment: CD73 Cell-Based Assay
Details: U138 cells, AMP substrate, 2 hours at 37° C., inorganic phosphate by malachite green
// reported IC50 per item

Some solved entries appear below for comparison.
>>> reported("O=P(O)(O)CS(=O)(=O)C[C@H]1O[C@@H](n2ccc3c(N4CC5CC5C4)nc(Cl)nc32)[C@H](O)[C@@H]1O (stereo partly shown)")
"10 to 100 nM"
>>> reported("CN(C)c1nc(Cl)nc2c1ccn2[C@@H]1O[C@H](COCP(=O)(O)O)[C@@H](O)[C@H]1O")
"10 to 100 nM"

Look up IC50: CC(C)Nc1nc(Cl)nc2c1ccn2[C@@H]1O[C@H](COCP(=O)(O)O)[C@@H](O)[C@H]1O
< 10 nM

Look up IC50: C[C@H](Nc1nc(Cl)nc2c1ccn2[C@@H]1O[C@H](CS(=O)(=O)CP(=O)(O)O)[C@@H](O)[C@H]1O)c1ccccc1
10 to 100 nM

* * *

// reported IC50 per item
Target: CD73 on U138 human neuroglioma cells (Homo sapiens, UniProt P21589)
Construct: U138 cells were obtained from ATCC and cultured in DMEM with 10% FBS; host or cells: U138 human neuroglioma cells
Test: CD73 Cell-Based Assay
Settings: U138 cells, AMP substrate, 2 hours at 37° C., inorganic phosphate by malachite green

>>> reported("Cc1ccc([C@H](C)Nc2nc(Cl)nc3c2ccn3[C@@H]2O[C@H](COCP(=O)(O)O)[C@@H](O)[C@H]2O)cc1 [Compound 90]")
"< 10 nM"

# context switch: different compound, same IC50
Look up IC50: CCN(c1nc(Cl)nc2c1ccn2[C@@H]1O[C@H](COCP(=O)(O)O)[C@@H](O)[C@H]1O)C1CCCC1 [Compound 195]
< 10 nM

* * *

// reported IC50 per item
Target: Human CD73 (Homo sapiens)
Construct: purchased R&D Systems; host or cells: CHO cells
Experiment: CD73 Enzyme Assay
Assay type: biochemical
Details: 0.25 nM hCD73, 25 μM AMP, kinetic read at 360 nm; read-out: CD73 Enzyme Assay IC50

Some solved entries appear below for comparison.
>>> reported("CNc1nc(NCc2ccccc2)c2ncn([C@@H]3O[C@H](COCP(=O)(O)O)[C@@H](O)[C@H]3O)c2n1 [Compound 5]")
"> 1000 nM"
>>> reported("C[C@@H](Nc1nc(Cl)nc2c1ncn2[C@@H]1O[C@H](COCP(=O)(O)O)[C@@H](O)[C@@]1(C)O)c1ccccc1 [Compound 216]")
"> 1000 nM"
>>> reported("O=P(O)(O)COC[C@H]1O[C@@H](n2ccc3c(N(CC4CC4)C4CCCC4)nc(Cl)nc32)[C@H](O)[C@@H]1O [Compound 196]")
"< 10 nM"

Look up IC50: O=P(O)(O)COC[C@H]1O[C@@H](n2ccc3c(-c4ccccc4)nc(Cl)nc32)[C@H](O)[C@@H]1O [Compound 212]
10 to 100 nM

Look up IC50: O=P(O)(O)CS(=O)(=O)C[C@H]1O[C@@H](n2ccc3c(NC4CC(F)(F)C4)nc(Cl)nc32)[C@H](O)[C@@H]1O [Compound 173]
< 10 nM

Look up IC50: O=P(O)(O)COC[C@H]1O[C@@H](n2cnc3c(OC4CCCC4)ncnc32)[C@H](O)[C@@H]1O [Compound 55]
100 to 1000 nM
